# system.under.test: Concanavalin-A (Canavalia ensiformis)
# procedure.details: ConA small-molecule binders, primary screen, artefact control for SMM control protein annotation, biochemical, small-molecule microarray, Alexa647 label, 635 nm (AID 1127);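 further: z combines 667 nm emission intensity with signal-to-noise across three replicate slides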
# study.conditions: ConA-A647 binding fluorescence, higher = more signal
parameter.measured: composite z-score

Examples from the recorded data:
> print(dat)
                                   molecule  parameter.measured    val
1  N#Cc1ccc(NN2C(C(O)c3ccc(B(O)O)cc3)C=CC3CN(c4ccccc4)C(=O)C32)cc1 (centres undefined)   composite z-score  0.133
2  COc1ccc([Si](C)(C)[C@H]2[C@H](CC(=O)N3CCC[C@H]3CO)O[C@@]3(C(=O)N(Cc4cccc(N5CCCCC5=O)c4)c4ccccc43)[C@@H]2C)cc1   composite z-score   1.13
3  COCCCNC(=O)[C@@]1(CCC(=O)OC(C)(C)C)N=C(c2ccc(OCCCO)cc2)O[C@H]1c1ccccc1   composite z-score  0.525

Would you kindly look at the next entry?
Give the measured composite z-score of CCCCCCCCCCC(O)C1C=CC2C(=O)N(C)C(=O)C2N1Nc1ccccc1 (centres undefined) .
-0.834

###

# procedure.details: binders of probe aFGF10 on microarray, primary screen, stem cell growth factor project, biochemical, small-molecule microarray, fluorescence 635/667 (AID 1071);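 further: score merges 667 nm spot intensity and signal to noise from triplicate slides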
# study.conditions: higher = more signal
Decision: composite z-score >= 0.5 yields condition met, all other cases yield condition not met.

Hello, I need to know if [N-]=[N+]=NCc1ccccc1[C@H]1OC(c2ccc(OCCCO)cc2)=N[C@@]1(CCS(=O)(=O)c1ccccc1)C(=O)NCCN1CCOCC1 has measured composite z-score not below 0.5. Thanks!
condition met

// same read-out, input: C=C(COC)C(=O)CC[C@H](OC(C)=O)c1ccccc1OCCO
condition not met

Also need COc1cc(CO)cc(I)c1O[C@H]1C=C(C(=O)NCCO)C[C@@H](N(CCN2CCOCC2)C(=O)C2CCCO2)[C@@H]1O (some centres not stated) , thanks.
condition not met

Param item: COc1cccc(C)c1NC(=O)O[C@H]1[C@H](OC(=O)Nc2ccccc2-c2ccccc2)[C@@H](OC(=O)Nc2ccccc2-c2ccccc2)[C@@H](OC)O[C@@H]1CO
condition met

Another molecule to look at: CO[C@H]1O[C@H](CO)[C@@H](OC(=O)Nc2ccccc2)[C@@H]2OC(=O)[C@@H](Cc3ccccc3)C/C=C/C[C@H](Cc3ccccc3)C(=O)O[C@@H]12
condition not met

Also CN1C(=O)C2C=CC(C(O)COCc3ccccc3)N(Nc3ccc([N+](=O)[O-])cc3[N+](=O)[O-])C2C1=O (configuration not stated) , if possible.
condition not met

###

# system.under.test: Focal adhesion kinase 1 (Homo sapiens) (UniProt Q05397)
# Sequence (Q05397 whole entry, looked up): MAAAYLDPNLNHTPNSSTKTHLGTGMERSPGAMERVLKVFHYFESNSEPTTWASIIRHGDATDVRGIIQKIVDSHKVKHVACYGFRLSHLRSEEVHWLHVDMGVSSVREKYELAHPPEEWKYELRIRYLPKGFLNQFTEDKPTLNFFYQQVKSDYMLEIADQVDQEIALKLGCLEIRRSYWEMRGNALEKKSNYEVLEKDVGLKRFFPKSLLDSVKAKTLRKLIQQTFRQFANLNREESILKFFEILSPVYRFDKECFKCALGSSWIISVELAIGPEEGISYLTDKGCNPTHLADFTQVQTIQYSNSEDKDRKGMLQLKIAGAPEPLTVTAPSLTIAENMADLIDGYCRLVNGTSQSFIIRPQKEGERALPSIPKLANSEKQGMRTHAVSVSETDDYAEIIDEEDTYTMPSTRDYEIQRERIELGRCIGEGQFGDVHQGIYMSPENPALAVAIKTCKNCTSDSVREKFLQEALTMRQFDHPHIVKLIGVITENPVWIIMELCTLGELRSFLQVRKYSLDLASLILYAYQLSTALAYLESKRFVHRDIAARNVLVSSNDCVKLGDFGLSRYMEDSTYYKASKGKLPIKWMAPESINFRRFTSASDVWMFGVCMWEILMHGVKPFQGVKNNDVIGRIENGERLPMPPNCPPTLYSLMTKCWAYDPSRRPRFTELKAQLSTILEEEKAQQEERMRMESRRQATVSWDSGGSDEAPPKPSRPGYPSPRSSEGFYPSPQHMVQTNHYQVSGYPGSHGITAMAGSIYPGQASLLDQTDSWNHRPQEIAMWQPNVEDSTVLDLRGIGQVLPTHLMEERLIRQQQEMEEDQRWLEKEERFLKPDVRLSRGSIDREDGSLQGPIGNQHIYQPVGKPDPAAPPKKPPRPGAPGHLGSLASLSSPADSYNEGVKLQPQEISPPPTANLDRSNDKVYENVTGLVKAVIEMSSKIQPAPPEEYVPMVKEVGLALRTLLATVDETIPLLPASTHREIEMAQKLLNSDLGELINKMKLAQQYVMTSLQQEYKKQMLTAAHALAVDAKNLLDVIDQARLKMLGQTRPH
# procedure.details: small-molecule microarray binders of FAK, primary screen, biochemical, 635/667 nm fluorescence, BSA, DTT (AID 1130);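 further: composite of spot emission at 667 nm and signal to noise over triplicate slides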
# study.conditions: PTK2 binding, 635 nm fluorescence, higher = more signal
Assign rule met to entries whose composite z-score meets or exceeds 0.1; assign rule not met to the rest.

molecule	group.label
C=C(C(=O)CC[C@H](OC(=O)c1ccccc1-c1ccccc1C(=O)O)c1ccc(OCCO)cc1)C(C)C	rule met
COCCOC(=O)N1C(=O)[C@@]2(c3cc(C#CCC(C(=O)OC)C(=O)OC)ccc31)[C@H](C(N)=O)[C@H]1C(=O)O[C@H](c3ccccc3)[C@H](c3ccccc3)N1[C@@H]2c1ccccc1OCCO	rule met

Does composite z-score meet or surpass 0.1 for Cc1ccc(S(=O)(=O)N2[C@@H](c3ccccc3)C(C(=O)O)=CC[C@H]2c2ccc(F)cc2)cc1 ?
rule met

Next up: CC(=O)NCCCC[C@@H]1NC(=O)[C@H]2C[C@@H](C(=O)O)[C@@H](c3cccc(OCCO)c3)N2C1=O
rule met

Record: [N-]=[N+]=Nc1ccccc1C[C@@]1(C(=O)NCc2ccccc2)N=C(c2ccc(OCCCO)cc2)O[C@@H]1c1ccccc1
rule not met

Request: COC(=O)[C@@]1(Cc2ccccc2)[C@H]2c3cc(C(=O)N(C)C)n(Cc4ccc(Cl)c(C(F)(F)F)c4)c3C[C@H]2CN1C(=O)c1ccccc1
rule not met

Same again, this time with CN1C2C=C(c3ccc(CO)cc3)C(C3C(=O)N(C(N)=O)C(=O)C32)C1C1CC1 (stereo not given)
rule not met

Queued: COC(=O)C1=CC(CCCO)=CC(c2ccc(CN3CCCC3)cc2)N(C)C=C1C(=O)OC (stereo not given)
rule met

Note, next up: [N-]=[N+]=Nc1ccccc1C[C@]1(C(N)=O)COC(c2ccc(OCCCO)cc2)=N1
rule met

And the next one, Cc1ccc(S[C@]2(C(=O)NCc3ccccc3)CC(=O)N(Cc3ccccc3C(F)(F)F)[C@@H]2c2ccc(CO)cc2I)cc1 ?
rule met

Param item: COc1ccc([Si](C)(C)[C@@H]2[C@@H](CC(=O)N(CCO)Cc3ccccc3)O[C@]3(C(=O)N(Cc4cccc(I)c4)c4ccccc43)[C@H]2C)cc1
rule not met
